# assayRemarks: Autosampler stability at 4 °C of extracted antibiotic-spiked plasma/CAMHB samples
# conditionsUsed: CAMHB extracted samples, 15 h autosampler 4 °C; HQC (nominal as E15)
quantityName: Mean accuracy (%), Table S10
State just the number; it will be interpreted in %.

- compound: "C[C@@H](O)[C@H]1C(=O)N2C(C(=O)O)=C(S[C@@H]3CN[C@H](CNS(N)(=O)=O)C3)[C@H](C)[C@H]12 [Doripenem, doripenem]"
  Mean accuracy (%), Table S10: 103.0
- compound: "CO/N=C(\\C(=O)N[C@@H]1C(=O)N2C(C(=O)[O-])=C(C[N+]3(C)CCCC3)CS[C@H]12)c1csc(N)n1 [Cefepime, cefepime]"
  Mean accuracy (%), Table S10: 101.7
- compound: "CCN1CCN(C(=O)N[C@@H](C(=O)N[C@@H]2C(=O)N3[C@@H]2SC(C)(C)[C@@H]3C(=O)O)c2ccccc2)C(=O)C1=O [Piperacillin, piperacillin]"
  Mean accuracy (%), Table S10: 90.6
- compound: "C[C@@H]1O[C@@H]1P(=O)(O)O [Fosfomycin, fosfomycin]"
  Mean accuracy (%), Table S10: 95.6
- compound: "CN(C)c1cc(NC(=O)CNC(C)(C)C)c(O)c2c1C[C@H]1C[C@H]3[C@H](N(C)C)C(O)=C(C(N)=O)C(=O)[C@@]3(O)C(O)=C1C2=O [Tigecycline, tigecycline]"
  Mean accuracy (%), Table S10: 103.2

Sample CC(C)(O/N=C(\C(=O)N[C@@H]1C(=O)N2C(C(=O)[O-])=C(C[n+]3ccccc3)CS[C@H]12)c1csc(N)n1)C(=O)O [Ceftazidime, ceftazidime] — what was its Mean accuracy (%), Table S10?
112.0

Sample C[C@H]1COc2c(N3CCN(C)CC3)c(F)cc3c(=O)c(C(=O)O)cn1c23 [Levofloxacin, levofloxacin] — what was its Mean accuracy (%), Table S10?
99.5

Sample C[C@]1(Cn2ccnn2)[C@H](C(=O)O)N2C(=O)C[C@H]2S1(=O)=O [Tazobactam, tazobactam] — what was its Mean accuracy (%), Table S10?
111.6

Sample NC(=O)[C@@H]1CC[C@@H]2CN1C(=O)N2OS(=O)(=O)O [Avibactam, avibactam] — what was its Mean accuracy (%), Table S10?
107.5

###

# assayRemarks: Long-term storage stability of antibiotics in combination with fosfomycin spiked in plasma/CAMHB (−30 °C, −80 °C)
# Assay type: physicochemical
# conditionsUsed: CAMHB, combination with fosfomycin, 4 weeks at -30 °C; HQC (nominal as E15)
Measured Mean accuracy (%), Table S16 accompanies every entry in the list below.
State just the number; it will be interpreted in %.

- compound: "Cn1c(N)c(NC(=O)NCCN)c[n+]1CC1=C(C(=O)O)N2C(=O)[C@@H](NC(=O)/C(=N\\OC(C)(C)C(=O)[O-])c3nsc(N)n3)[C@H]2SC1"
  Mean accuracy (%), Table S16: 90.8

Proceeding to the next compound to report its Mean accuracy (%), Table S16.
Sample `CCN1CCN(C(=O)N[C@@H](C(=O)N[C@@H]2C(=O)N3[C@@H]2SC(C)(C)[C@@H]3C(=O)O)c2ccccc2)C(=O)C1=O` — what was its Mean accuracy (%), Table S16?
69.6

###

# assayRemarks: Long-term storage stability of antibiotics in combination with fosfomycin spiked in plasma/CAMHB (−30 °C, −80 °C)
# Format: physicochemical
# conditionsUsed: CAMHB, combination with fosfomycin, 2 weeks at -80 °C; LQC (nominal as E13)
quantityName: Mean accuracy (%), Table S17
Could you write the number and then its unit?

Some molecules with recorded Mean accuracy (%), Table S17:
- molecule: "CO/N=C(\\C(=O)N[C@@H]1C(=O)N2C(C(=O)[O-])=C(C[N+]3(C)CCCC3)CS[C@H]12)c1csc(N)n1 [Cefepime, cefepime]"
  quantityName: "Mean accuracy (%), Table S17"
  result: "108.8%"
- molecule: "CC(C)(O/N=C(\\C(=O)N[C@@H]1C(=O)N2C(C(=O)[O-])=C(C[n+]3ccccc3)CS[C@H]12)c1csc(N)n1)C(=O)O"
  quantityName: "Mean accuracy (%), Table S17"
  result: "104.3%"

Sample `C[C@@H](O)[C@H]1C(=O)N2C(C(=O)O)=C(S[C@@H]3CN[C@H](CNS(N)(=O)=O)C3)[C@H](C)[C@H]12` — what was its Mean accuracy (%), Table S17?
104.0%

###

# assayRemarks: Long-term storage stability of antibiotics in combination with fosfomycin spiked in plasma/CAMHB (−30 °C, −80 °C)
# Type: physicochemical
# conditionsUsed: CAMHB, combination with fosfomycin, 2 weeks at -30 °C; MQC (nominal as E14)
quantityName: Mean accuracy (%), Table S15
State just the number; it will be interpreted in %.

Some compounds with recorded Mean accuracy (%), Table S15:
- compound: "C[C@H]1[C@H](NC(=O)/C(=N\\OC(C)(C)C(=O)O)c2csc(N)n2)C(=O)N1S(=O)(=O)O [Aztreonam, aztreonam]"
  Mean accuracy (%), Table S15: 92.5
- compound: "C[C@]1(Cn2ccnn2)[C@H](C(=O)O)N2C(=O)C[C@H]2S1(=O)=O [Tazobactam, tazobactam]"
  Mean accuracy (%), Table S15: 90.4
- compound: "C[C@@H]1O[C@@H]1P(=O)(O)O [Fosfomycin, fosfomycin]"
  Mean accuracy (%), Table S15: 94.7
- compound: "C[C@@H](O)[C@H]1C(=O)N2C(C(=O)O)=C(S[C@@H]3CN[C@H](CNS(N)(=O)=O)C3)[C@H](C)[C@H]12 [Doripenem, doripenem]"
  Mean accuracy (%), Table S15: 77.1
- compound: "CN(C)c1cc(NC(=O)CNC(C)(C)C)c(O)c2c1C[C@H]1C[C@H]3[C@H](N(C)C)C(O)=C(C(N)=O)C(=O)[C@@]3(O)C(O)=C1C2=O [Tigecycline, tigecycline]"
  Mean accuracy (%), Table S15: 87.3

Proceeding to the next compound to report its Mean accuracy (%), Table S15.
Sample Cn1c(N)c(NC(=O)NCCN)c[n+]1CC1=C(C(=O)O)N2C(=O)[C@@H](NC(=O)/C(=N\OC(C)(C)C(=O)[O-])c3nsc(N)n3)[C@H]2SC1 [Ceftolozane, ceftolozane] — what was its Mean accuracy (%), Table S15?
94.7

###

# assayRemarks: Long-term storage stability of antibiotics in combination with fosfomycin spiked in plasma/CAMHB (−30 °C, −80 °C)
# Type: physicochemical
# conditionsUsed: plasma, combination with fosfomycin, 2 weeks at -80 °C; HQC (nominal as E15)
quantityName: Mean accuracy (%), Table S13

- structureString: "C[C@]1(Cn2ccnn2)[C@H](C(=O)O)N2C(=O)C[C@H]2S1(=O)=O"
  Mean accuracy (%), Table S13: "95.4%"
- structureString: "C[C@@H](O)[C@H]1C(=O)N2C(C(=O)O)=C(S[C@@H]3CN[C@H](C(=O)N(C)C)C3)[C@H](C)[C@H]12"
  Mean accuracy (%), Table S13: "105.4%"

Sample `CN(C)c1cc(NC(=O)CNC(C)(C)C)c(O)c2c1C[C@H]1C[C@H]3[C@H](N(C)C)C(O)=C(C(N)=O)C(=O)[C@@]3(O)C(O)=C1C2=O` — what was its Mean accuracy (%), Table S13?
107.8%

Sample `C[C@@H]1O[C@@H]1P(=O)(O)O` — what was its Mean accuracy (%), Table S13?
95.6%

Sample `CCN1CCN(C(=O)N[C@@H](C(=O)N[C@@H]2C(=O)N3[C@@H]2SC(C)(C)[C@@H]3C(=O)O)c2ccccc2)C(=O)C1=O` — what was its Mean accuracy (%), Table S13?
88.6%

###

# assayRemarks: Long-term storage stability of antibiotics in combination with fosfomycin spiked in plasma/CAMHB (−30 °C, −80 °C)
# Type: physicochemical
# conditionsUsed: plasma, combination with fosfomycin, 2 weeks at -80 °C; HQC (nominal as E15)
Measured Mean accuracy (%), Table S13 accompanies every entry in the list below.
State just the number; it will be interpreted in %.

Some molecules with recorded Mean accuracy (%), Table S13:
- molecule: "C[C@H]1[C@H](NC(=O)/C(=N\\OC(C)(C)C(=O)O)c2csc(N)n2)C(=O)N1S(=O)(=O)O [Aztreonam, aztreonam]"
  Mean accuracy (%), Table S13: 97.2
- molecule: "NC(=O)[C@@H]1CC[C@@H]2CN1C(=O)N2OS(=O)(=O)O [Avibactam, avibactam]"
  Mean accuracy (%), Table S13: 95.2
- molecule: "CC(C)(O/N=C(\\C(=O)N[C@@H]1C(=O)N2C(C(=O)[O-])=C(C[n+]3ccccc3)CS[C@H]12)c1csc(N)n1)C(=O)O [Ceftazidime, ceftazidime]"
  Mean accuracy (%), Table S13: 99.4
- molecule: "Cn1c(N)c(NC(=O)NCCN)c[n+]1CC1=C(C(=O)O)N2C(=O)[C@@H](NC(=O)/C(=N\\OC(C)(C)C(=O)[O-])c3nsc(N)n3)[C@H]2SC1 [Ceftolozane, ceftolozane]"
  Mean accuracy (%), Table S13: 86.3
- molecule: "C[C@@H](O)[C@H]1C(=O)N2C(C(=O)O)=C(S[C@@H]3CN[C@H](CNS(N)(=O)=O)C3)[C@H](C)[C@H]12 [Doripenem, doripenem]"
  Mean accuracy (%), Table S13: 98.3

Sample CO/N=C(\C(=O)N[C@@H]1C(=O)N2C(C(=O)[O-])=C(C[N+]3(C)CCCC3)CS[C@H]12)c1csc(N)n1 [Cefepime, cefepime] — what was its Mean accuracy (%), Table S13?
89.0

All figures here come from paper PMC8772704.
